Tested on: 313798-341-R-J2-PDC spheroids, viability;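 also: spheroids exposed to compounds for seven days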
Test: Anticancer human tumor 313798-341-R-J2-PDC patient-derived cervical squamous cell carcinoma cell line growth inhibition [PI3K]; active = viability on the fitted dose curve at most 10% of control; inactive = the rest
Settings: second compound 0.316 µM; first compound 3 µM; spheroids with HUVEC and MSC
Hi there, use one of these labels in your reply, thanks! active, inactive

{"columns": ["molecule", "tested target", "label class"],
 "data": [
  ["Cn1cnc2c(F)c(Nc3ccc(Br)cc3Cl)c(C(=O)NOCCO)cc21 + CC(Nc1ncnc2nc[nH]c12)c1cc2cccc(Cl)c2c(=O)n1-c1ccccc1", "313798-341-R-J2-PDC spheroids, viability", "inactive"],
  ["Cn1cnc2c(F)c(Nc3ccc(Br)cc3Cl)c(C(=O)NOCCO)cc21 + Cc1nc(NC(=O)N2CCCC2C(N)=O)sc1-c1ccnc(C(C)(C)C(F)(F)F)c1", "313798-341-R-J2-PDC spheroids, viability", "inactive"],
  ["Cn1cnc2c(F)c(Nc3ccc(Br)cc3Cl)c(C(=O)NOCCO)cc21 + COc1c(OCCCN2CCOCC2)ccc2c3n(c(=NC(=O)c4cnc(N)nc4)nc12)CCN3", "313798-341-R-J2-PDC spheroids, viability", "active"]
]}

Here's the next entry for you.
## Input I would be grateful if you could indicate the recorded call for Cn1cnc2c(F)c(Nc3ccc(Br)cc3Cl)c(C(=O)NOCCO)cc21 + CC(Nc1ccc2c(c1)OCCn1cc(N3C(=O)OCC3C(F)F)nc1-2)C(N)=O .
## Output active

Where do these numbers come from? They come from PubChem BioAssay AID1963982.
